Biological target: Pol theta (1-899) (Homo sapiens, UniProt O75417)
Construct: Pol theta (1-899) (5 nM) in assay buffer
Sequence (O75417 1-899): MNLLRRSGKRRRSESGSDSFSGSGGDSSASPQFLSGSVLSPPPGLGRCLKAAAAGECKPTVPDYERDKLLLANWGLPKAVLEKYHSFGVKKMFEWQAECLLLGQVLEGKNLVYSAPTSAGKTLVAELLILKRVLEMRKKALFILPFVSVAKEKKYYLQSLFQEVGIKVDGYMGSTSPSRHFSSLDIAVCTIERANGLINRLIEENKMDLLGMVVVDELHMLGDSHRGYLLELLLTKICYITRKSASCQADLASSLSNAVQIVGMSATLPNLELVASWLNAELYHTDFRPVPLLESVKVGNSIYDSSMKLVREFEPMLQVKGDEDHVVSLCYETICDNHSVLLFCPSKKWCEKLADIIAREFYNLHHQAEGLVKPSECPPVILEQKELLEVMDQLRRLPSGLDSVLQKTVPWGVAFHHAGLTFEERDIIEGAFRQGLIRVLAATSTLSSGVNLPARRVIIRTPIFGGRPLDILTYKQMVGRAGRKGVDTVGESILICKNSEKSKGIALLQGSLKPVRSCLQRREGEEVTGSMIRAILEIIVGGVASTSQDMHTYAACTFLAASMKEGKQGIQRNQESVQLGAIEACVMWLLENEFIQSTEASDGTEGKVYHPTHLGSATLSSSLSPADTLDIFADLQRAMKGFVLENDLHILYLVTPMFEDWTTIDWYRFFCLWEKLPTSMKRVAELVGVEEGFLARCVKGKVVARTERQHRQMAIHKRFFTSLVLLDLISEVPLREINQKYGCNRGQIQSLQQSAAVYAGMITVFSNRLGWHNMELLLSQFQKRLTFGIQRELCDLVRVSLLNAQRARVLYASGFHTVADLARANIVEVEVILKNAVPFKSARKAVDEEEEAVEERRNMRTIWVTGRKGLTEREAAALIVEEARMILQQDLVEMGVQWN
Assay: Pol theta ATPase activity, NADH oxidation-coupled enzymatic assay (ATPase NADH coupling: Standard Screening: hPolQ)
Type: biochemical
Conditions: Table 5; Pol theta (1-899) 5 nM, ATP, dT50 ssDNA
pIC50: −log10 of the molar value.
Recorded pIC50 for the following compounds

Some solved cases for reference:
{"compound": "COc1cnc(Cl)cc1-c1cc(C)ncc1C(=O)Nc1nnc(O[C@@H]2CCC[C@](C)(O)C2)s1 (single isomer, unassigned)", "pIC50": "6.30 to 6.70"}
{"compound": "COc1nnc(NC(=O)c2cnc(C)cc2-c2cc(Cl)c([S+](C)[O-])cc2OC)s1 (stereo not drawn)", "pIC50": "≥ 6.70"}
{"compound": "COc1cnc(Cl)cc1-c1cc(C)ncc1C(=O)Nc1nnc(O[C@H]2CC[C@H](CO)CC2)s1", "pIC50": "≥ 6.70"}
{"compound": "COc1cnc(Cl)cc1-c1cc(C)ncc1C(=O)Nc1nnc(O[C@H]2CC[C@H](C(C)(C)O)CC2)s1", "pIC50": "≥ 6.70"}
{"compound": "COc1cnc(Cl)cc1-c1cc(C)ncc1C(=O)Nc1nnc(O[C@H]2COC(C)(C)C2)s1 (single isomer, unassigned)", "pIC50": "≥ 6.70"}
{"compound": "COc1cnc(C)c(F)c1-c1cc(C)ncc1C(=O)Nc1nnc(O[C@@H]2C[C@H]3CC[C@@H]2O3)s1 (single isomer, unassigned)", "pIC50": "≥ 6.70"}

// fetch Pol theta (1-899) (Homo sapiens, UniProt O75417) pIC50 for COc1cnc(Cl)cc1-c1cc(C)ncc1C(=O)Nc1nnc(O[C@H]2CCC[C@](C)(O)C2)s1 (racemic) [Example 178]
≥ 6.70

// fetch Pol theta (1-899) (Homo sapiens, UniProt O75417) pIC50 for COc1cnc(C)c(F)c1-c1cc(C)ncc1C(=O)Nc1nnc(O[C@@H]2COC3(CC3)C2)s1 (single isomer, unassigned)
≥ 6.70

// fetch Pol theta (1-899) (Homo sapiens, UniProt O75417) pIC50 for COc1cnc(Cl)cc1-c1cc(C)ncc1C(=O)Nc1nnc(O[C@H]2CC[C@@H](OC)C2)s1 (racemic)
≥ 6.70

###

Recorded IC50 for the following molecules
Target: Pol theta (1-899) (Homo sapiens, UniProt O75417)
Construct: Pol theta (1-899) (5 nM) in assay buffer
Experiment: Pol theta ATPase activity, NADH oxidation-coupled enzymatic assay (ATPase NADH coupling: Standard Screening: hPolQ)
Type: biochemical
Conditions: Pol theta (1-899) 5 nM, NADH oxidation-coupled ATPase assay; compounds of Table 3

Which measured IC50 value corresponds to COc1nnc(NC(=O)c2cnc(C)cc2-c2ccc3c(c2)CCN(C)C3)s1 [Example 432] ?
1000 to 10000 nM

Which measured IC50 value corresponds to COc1cnc(Cl)cc1-c1cc(C)ncc1C(=O)Nc1nnc(O[C@@H]2CO[C@H]3OCC[C@H]32)s1 (single isomer, unassigned) [Example 305] ?
≤ 200 nM

Which measured IC50 value corresponds to COc1nnc(NC(=O)c2cnc(C)cc2-c2cccc(CC#N)c2)s1 [Example 477] ?
1000 to 10000 nM

Which measured IC50 value corresponds to COc1nnc(NC(=O)c2cnc(C)cc2-c2ccco2)s1 [Example 391] ?
1000 to 10000 nM

Which measured IC50 value corresponds to COc1cnc(Br)cc1-c1cc(C)ncc1C(=O)Nc1nnc(O[C@H]2CC[C@H](CO)CC2)s1 [Example 315] ?
≤ 200 nM

Which measured IC50 value corresponds to COc1cnc(Br)cc1-c1cc(C)ncc1C(=O)Nc1nnc(O[C@@H]2CCC[C@H](O)C2)s1 (single isomer, unassigned) [Example 239] ?
≤ 200 nM

Which measured IC50 value corresponds to COc1cnc(C)c(F)c1-c1cc(C)ncc1C(=O)Nc1nnc(O[C@H]2CO[C@H]3OCC[C@H]32)s1 [Example 243] ?
≤ 200 nM

###

Molecular target: Pol theta (1-899) (Homo sapiens, UniProt O75417)
Construct: Pol theta (1-899) (5 nM) in assay buffer
Assay: Pol theta ATPase activity, NADH oxidation-coupled enzymatic assay (ATPase NADH coupling: Standard Screening: hPolQ)
Assay type: biochemical
Settings: Pol theta (1-899) 5 nM, NADH oxidation-coupled ATPase assay; compounds of Table 3
Recorded IC50 for the following compounds

{"compound": "COc1ccc(-c2cc(C)ncc2C(=O)Nc2nnc(OC)s2)c(OC)n1", "IC50": "200 to 500 nM"}
{"compound": "COc1cnc(C)c(F)c1-c1cc(C)ncc1C(=O)Nc1nnc(O[C@H]2C[C@H]3C[C@@H]2C[C@@H]3O)s1 (single isomer, unassigned)", "IC50": "≤ 200 nM"}

Now let's try a different one.
// fetch Pol theta (1-899) (Homo sapiens, UniProt O75417) IC50 for `COc1nnc(NC(=O)c2cnc(C)cc2-c2ccc(F)c(OC)c2)s1`
1000 to 10000 nM

###

Target: Pol theta (1-899) (Homo sapiens, UniProt O75417)
Construct: Pol theta (1-899) (5 nM) in assay buffer
Assay: Pol theta ATPase activity, NADH oxidation-coupled enzymatic assay (ATPase NADH coupling: Standard Screening: hPolQ)
Assay type: biochemical
Settings: Pol theta (1-899) 5 nM, NADH oxidation-coupled ATPase assay; compounds of Table 3
pIC50: −log10 of the molar value.
measurement.label: pIC50

Some solved cases for reference:
{"molecule": "COc1nnc(NC(=O)c2cnc(C)cc2-c2ccc3nc[nH]c3c2)s1", "system": "Pol theta (1-899) (Homo sapiens, UniProt O75417)", "pIC50": "5.00 to 6.00"}
{"molecule": "COc1nnc(NC(=O)c2cnc(C)cc2-c2cc(Cl)c([S@+]([O-])C3CC3)cc2OC)s1 (single isomer, unassigned)", "system": "Pol theta (1-899) (Homo sapiens, UniProt O75417)", "pIC50": "5.00 to 6.00"}
{"molecule": "COc1nnc(NC(=O)c2cnc(C)cc2-c2ccc3cn(C)nc3c2)s1", "system": "Pol theta (1-899) (Homo sapiens, UniProt O75417)", "pIC50": "5.00 to 6.00"}

Which measured pIC50 value corresponds to `COc1nnc(NC(=O)c2cnc(C)cc2-c2cscc2C#N)s1` ?
5.00 to 6.00

Which measured pIC50 value corresponds to COc1cnc(Cl)cc1-c1cc(C)ncc1C(=O)Nc1nnc(OC2CCCN(C3CCOC3)C2)s1 (stereo not shown) ?
≥ 6.70

Which measured pIC50 value corresponds to `COc1nnc(NC(=O)c2cnc(C)cc2-c2cccc(S(C)(=O)=O)c2)s1` ?
6.00 to 6.30

Which measured pIC50 value corresponds to `COc1nnc(NC(=O)c2cnc(C)cc2-c2ccn(C)c(=O)c2)s1` ?
5.00 to 6.00

Which measured pIC50 value corresponds to `COc1cnc(Br)cc1-c1cc(C)ncc1C(=O)Nc1nnc(O[C@@H]2CCC[C@@H](O)C2)s1` ?
≥ 6.70

Which measured pIC50 value corresponds to COc1cnc(Cl)cc1-c1cc(C)ncc1C(=O)Nc1nnc(OC2(C3CCOC3)CC2)s1 (stereo not shown) ?
≥ 6.70

###

Recorded IC50 for the following compounds
Target: Pol theta (1-899) (Homo sapiens, UniProt O75417)
Construct: Pol theta (1-899) (5 nM) in assay buffer
Assay: Pol theta ATPase activity, NADH oxidation-coupled enzymatic assay (ATPase NADH coupling: Standard Screening: hPolQ)
Format: biochemical
Conditions: Pol theta (1-899) 5 nM, NADH oxidation-coupled ATPase assay; compounds of Table 3

{"compound": "COc1cnc(Cl)cc1-c1cc(C)ncc1C(=O)Nc1nnc(O[C@@H]2C[C@H](F)CN(C3COC3)C2)s1 (single isomer, unassigned)", "system": "Pol theta (1-899) (Homo sapiens, UniProt O75417)", "IC50": "≤ 200 nM"}
{"compound": "COc1nnc(NC(=O)c2cnc(C)cc2-c2ccc3nccnc3c2)s1", "system": "Pol theta (1-899) (Homo sapiens, UniProt O75417)", "IC50": "500 to 1000 nM"}
{"compound": "COc1nnc(NC(=O)c2cnc(C)cc2-c2csc3cnccc23)s1", "system": "Pol theta (1-899) (Homo sapiens, UniProt O75417)", "IC50": "500 to 1000 nM"}
{"compound": "COc1nnc(NC(=O)c2cnc(C)cc2-c2cc(Br)c([S@@+](C)[O-])cc2OC)s1 (single isomer, unassigned)", "system": "Pol theta (1-899) (Homo sapiens, UniProt O75417)", "IC50": "≤ 200 nM"}
{"compound": "COc1nnc(NC(=O)c2cnc(C)cc2-c2cn(C)c3ccccc23)s1", "system": "Pol theta (1-899) (Homo sapiens, UniProt O75417)", "IC50": "1000 to 10000 nM"}
{"compound": "COc1nnc(NC(=O)c2cnc(C)cc2-c2ccc(OC(C)C)c(C#N)c2)s1", "system": "Pol theta (1-899) (Homo sapiens, UniProt O75417)", "IC50": "≤ 200 nM"}
{"compound": "COc1nnc(NC(=O)c2cnc(C)cc2-c2cnc3[nH]ncc3c2)s1", "system": "Pol theta (1-899) (Homo sapiens, UniProt O75417)", "IC50": "1000 to 10000 nM"}

// fetch Pol theta (1-899) (Homo sapiens, UniProt O75417) IC50 for `CCc1cc(C(=O)Nc2nnc(OC)s2)c(-c2cc(Cl)ncc2OC)cn1`
200 to 500 nM

# credit: patent US20240287080A1
